Can you tell me pKd for the items I'm about to list?
Target: T1R3 (Homo sapiens)
Sequence (Q7RTX0 21-852): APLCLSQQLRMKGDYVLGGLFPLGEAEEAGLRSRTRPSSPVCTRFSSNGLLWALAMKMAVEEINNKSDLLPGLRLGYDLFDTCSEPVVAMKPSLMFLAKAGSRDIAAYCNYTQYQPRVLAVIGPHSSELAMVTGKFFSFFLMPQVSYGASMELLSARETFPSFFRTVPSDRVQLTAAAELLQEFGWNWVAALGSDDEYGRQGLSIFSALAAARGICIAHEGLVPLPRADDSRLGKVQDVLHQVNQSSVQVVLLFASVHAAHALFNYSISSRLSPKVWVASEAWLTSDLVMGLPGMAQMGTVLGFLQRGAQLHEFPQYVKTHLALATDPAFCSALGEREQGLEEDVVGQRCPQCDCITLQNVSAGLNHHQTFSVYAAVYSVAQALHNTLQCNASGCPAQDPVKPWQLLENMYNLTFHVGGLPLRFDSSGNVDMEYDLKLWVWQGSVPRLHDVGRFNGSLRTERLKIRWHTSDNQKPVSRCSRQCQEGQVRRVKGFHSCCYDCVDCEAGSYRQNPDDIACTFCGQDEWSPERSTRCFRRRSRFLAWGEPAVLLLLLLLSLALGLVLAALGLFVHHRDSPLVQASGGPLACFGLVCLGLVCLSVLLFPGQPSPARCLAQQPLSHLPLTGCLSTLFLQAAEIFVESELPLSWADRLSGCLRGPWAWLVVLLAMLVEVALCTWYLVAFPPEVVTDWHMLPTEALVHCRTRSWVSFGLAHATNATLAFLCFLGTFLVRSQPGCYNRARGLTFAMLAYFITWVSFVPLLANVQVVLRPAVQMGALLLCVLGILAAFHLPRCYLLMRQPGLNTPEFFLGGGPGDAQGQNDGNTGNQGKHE
Test: T1R3-HEMT biosensor interaction, dissociation constant
Give bare numbers, as −log10 of the molar value.

INSERT INTO measurements (compound, target_or_test_system, quantitative_readout) VALUES
  ('COc1ccc(-c2coc3cc(O)ccc3c2=O)cc1O', 'T1R3 (Homo sapiens)', 9.19),
  ('C=C1CCC[C@]2(C)C=C3OC(=O)C(C)=C3C[C@@H]12 [atractylenolide I]', 'T1R3 (Homo sapiens)', 10.05);

Continue with the next compound.
Using the record for C[C@@H]1CC[C@@]2(OC1)O[C@H]1C[C@H]3[C@@H]4CC=C5C[C@@H](O)C[C@@H](O)[C@]5(C)[C@H]4CC[C@]3(C)[C@H]1[C@@H]2C , state its measured pKd.
9.66
